Target or system Plasminogen activator inhibitor 1 (Homo sapiens); metric IC50; compiled from varied reports.
recorded-endpoint: IC50 (µM)

structure-notation | tested-system | IC50 (µM)
CC(C)C[C@@H]1c2c(O)c(C=O)c(O)c(C=O)c2O[C@@H](c2c(O)c(C=O)c(O)c(C=O)c2O)[C@H]1C(C)C | Plasminogen activator inhibitor 1 (Homo sapiens) | 5.3
Oc1nc(-c2ccc(Cl)cc2)c(O)c2ccccc12 | Plasminogen activator inhibitor 1 (Homo sapiens) | 23.6

A. O=C(O)C1CCN(c2cccc(C(F)(F)F)c2CNc2ccc(N3CCN(c4cccc(C(F)(F)F)c4)CC3)c(C(F)(F)F)c2)CC1
B. O=C(O)C1CCN(c2cc(N3CCN(C(=O)Nc4cccc(C(F)(F)F)c4)CC3)c([N+](=O)[O-])cc2C(F)(F)F)CC1
C. CC(C)C[C@@H]1C[C@@]2(CC[C@@H]3C[C@H]2C3(C)C)Oc2c(C=O)c(O)c(C=O)c(O)c21
Input line: Your job: order these 3 records by IC50, ascending. Order the labels as requested and list them.
Output line: A, B, C
(A: 1.7 µM, B: 3.5 µM, C: 152 µM)
